What cell viability was measured for each of the following?
- Test system: Caco-2
- assay.name: cell viability relative to DMSO; higher = less toxic
- measurement.setup: 72 h; 10000 nM
Numbers only, in %.

>>> number("CCCCCCCCCCCCCCOc1ccc(C(=O)O)o1")
82.5

For each listed entry, give its cell viability.
1. C1CCN2C[C@@H]3C[C@@H](CN4CCCC[C@@H]34)[C@H]2C1 [sparteine-sulfate]
2. O=C(Nc1cccc2cccnc12)c1ccc(N2C(=O)[C@@H]3[C@H](C2=O)[C@H]2C=C[C@@H]3C2)cc1 [exo-IWR-1]
3. CC(C)(C)S(=O)(=O)N[C@H]1CC[C@H](C(=O)Nc2ccc(C(F)(F)F)cn2)CC1
4. CC(=O)O[C@]1(C(C)=O)CC[C@H]2[C@@H]3CCC4=CC(=O)CC[C@]4(C)[C@H]3CC[C@@]21C [hydroxyprogesterone-acetate]
5. Cc1ccc(F)c(NC(=O)Nc2ccc(-c3cccc4[nH]nc(N)c34)cc2)c1

Result:
1: 105; 2: 106; 3: 104; 4: 98.9; 5: 106

For each listed entry, give its cell viability.
1. CCOc1ccc2nc3cc(N)ccc3c(N)c2c1 [ethacridine-lactate-monohydrate]
2. CNC(=O)c1nn(C)c2c1C(C)(C)Cc1cnc(Nc3ccc(N4CCN(C)CC4)cc3)nc1-2

Result:
1. 95.4
2. 28.9

###

What cell viability was measured for each of the following?
- Tested on: Caco-2
- assay.name: cell viability relative to DMSO; higher = less toxic
- measurement.setup: 72 h; 10000 nM
Give bare numbers, in %.

>>> number("CC1(C)NC(=O)N(c2ccc([N+](=O)[O-])c(C(F)(F)F)c2)C1=O [nilutamide]")
90.5
>>> number("N#C/C(=C\\c1cn(-c2ccccc2)c2ccccc12)C(=O)O")
104
>>> number("CCOC(=O)c1cc(C#N)c(N2CCC(C(=O)NS(=O)(=O)Cc3ccccc3)CC2)nc1C")
97
>>> number("CON(C)C(=O)[C@H](O)[C@H](Cc1ccccc1)NC(=O)c1cc2cc(Cl)ccc2[nH]1")
90.4
>>> number("COc1ccc(Cl)c(Nc2ncnc3cc(OCC4CCN(C)CC4)c(OC)cc23)c1")
68.3

For each listed entry, give its cell viability.
1. NC(=O)C1=CN([C@@H]2O[C@H](COP(=O)(O)OP(=O)(O)OC[C@H]3O[C@@H](n4cnc5c(N)ncnc54)[C@H](O)[C@@H]3O)[C@@H](O)[C@H]2O)C=CC1
2. Nc1nc2c(ccc3ccccc32)s1
3. Cc1ccccc1C(OCCN(C)C)c1ccccc1 (configuration not stated)
4. COc1ccc(-c2ccc(=N)n(CCCC(=O)O)n2)cc1
5. Cc1cc(C(C)(C)C)c(O)c(C)c1CC1=NCCN1
6. Oc1ccc(O)cc1 [hydroquinone]

Result:
1. 108
2. 93.9
3. 95.5
4. 103
5. 83.6
6. 106

###

What cell viability was measured for each of the following?
- System: HepG2
- assay.name: cell viability relative to DMSO; higher = less toxic
- measurement.setup: 72 h; 1 nM
Answers are plain numbers, in %.

>>> number("C[C@@H]1CN(Cc2ccc(F)cc2)CCN1C(=O)COc1ccc(Cl)cc1NC(N)=O")
93.3

For each listed entry, give its cell viability.
1. CC(=O)OCC1=C(C(=O)O)N2C(=O)[C@@H](NC(=O)CCCC(N)C(=O)O)C2SC1 (stereo not given in full)
2. O=C(O)[C@H](Cc1ccccc1)NCc1ccc(Cl)cc1

Result:
1. 103
2. 95.6

For each listed entry, give its cell viability.
1. CCN(CC)CC(=O)Nc1c(C)cccc1C
2. C1CCN2C[C@@H]3C[C@@H](CN4CCCC[C@@H]34)[C@H]2C1 [sparteine-sulfate]

Result:
1: 101; 2: 94.9
